System Tested: UniProt Q9GZT9
Sequence (Q9GZT9 whole entry): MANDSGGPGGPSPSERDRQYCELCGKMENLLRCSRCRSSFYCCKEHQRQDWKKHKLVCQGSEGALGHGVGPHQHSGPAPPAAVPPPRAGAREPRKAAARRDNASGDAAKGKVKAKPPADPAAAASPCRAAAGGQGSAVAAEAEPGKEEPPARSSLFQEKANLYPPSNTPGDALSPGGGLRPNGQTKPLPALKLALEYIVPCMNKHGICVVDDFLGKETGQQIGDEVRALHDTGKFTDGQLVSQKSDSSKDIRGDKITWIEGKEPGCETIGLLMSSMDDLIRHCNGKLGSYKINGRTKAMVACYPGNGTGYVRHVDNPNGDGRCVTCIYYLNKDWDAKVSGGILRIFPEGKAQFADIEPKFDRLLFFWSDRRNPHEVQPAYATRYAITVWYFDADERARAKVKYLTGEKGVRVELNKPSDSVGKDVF
Assay Summary: Test 2: human PHD2 inhibitory activity, fluorescence polarization assay of HIF-1α peptide proline hydroxylation
Format: biochemical
Reported Conditions: test compound's concentration 1 μM; Test 2, fluorescence polarization assay; read-out: Percent inhibition (% at 1 μM)
Protocol: (1) Expression and Preparation of Human PHD2 A registered sequence of human PHD2 (NM_022051) was introduced into pcDNA3.1/Hygro(+) vector (Invitrogen), and the sequence was verified. […] The activity of human PHD2 enzyme was measured with a substrate which is a 19-residue partial peptide based on the sequence of HIF-1α; specifically, the hydroxylation of a proline residue in the peptide was measured by FP (Fluorescence Polarization). […]
Provide the reported inhibition at 1 µM of each item.
Reply with just the number (in %).

Inquiry: Give the reported inhibition at 1 µM for O=C(O)CNC(=O)C1=C(O)C2(CCOCC2)CN(CC2CCC(c3ccccc3)CC2)C1=O (centres unmarked) (system: UniProt Q9GZT9).
Reply text: 92

Inquiry: Now the same for CC1CN(Cc2ccc(Br)cc2)C(=O)C(C(=O)NCC(=O)O)=C1O (centres unmarked)
Reply text: 85

Inquiry: Now the same for O=C(O)CNC(=O)C1=C(O)CC2(CCC2)N(CC2CCC(c3ccccc3)CC2)C1=O (centres unmarked)
Reply text: 92

Inquiry: Now the same for `CC1(C)CN(Cc2ccc(OC(F)(F)F)c(Cl)c2)C(=O)C(C(=O)NCC(=O)O)=C1O`
Reply text: 72

Inquiry: Now the same for `O=C(O)CNC(=O)C1=C(O)CCN(C[C@H]2CC[C@H](OCc3ccc(Cl)cc3)CC2)C1=O`
Reply text: 96

Inquiry: Now the same for `O=C(O)CNC(=O)C1=C(O)CCN(Cc2cnc(Oc3ccc(C4CC4)cc3)cn2)C1=O`
Reply text: 101

Inquiry: Now the same for `O=C(O)CNC(=O)C1=C(O)CCN(Cc2ccc(OC(F)(F)C(F)F)cc2)C1=O`
Reply text: 88

Inquiry: Now the same for `O=C(O)CNC(=O)C1=C(O)CCN(Cc2ccccc2Oc2ccc(F)cc2)C1=O`
Reply text: 86

Inquiry: Now the same for `O=C(O)CNC(=O)C1=C(O)CCN(Cc2ccc(OC(F)(F)F)c(Cl)c2)C1=O`
Reply text: 90

Inquiry: Now the same for O=C(O)CNC(=O)C1=C(O)CC(c2ccccc2)N(Cc2ccc(-c3ccccc3)cc2)C1=O (centres unmarked)
Reply text: 83

Inquiry: Now the same for `CC(C)(C)c1ccc(CN2CCC(O)=C(C(=O)NCC(=O)O)C2=O)cc1`
Reply text: 79

Inquiry: Now the same for `CC1(C)CN(Cc2ccc(-c3ccccc3)cc2)C(=O)C(C(=O)NCC(=O)O)=C1O`
Reply text: 89

Inquiry: Now the same for `O=C(O)CNC(=O)C1=C(O)CCN(C[C@H]2CC[C@H](Oc3ccc(C(F)(F)F)cn3)CC2)C1=O`
Reply text: 92

Inquiry: Now the same for `CC1(C)CC(O)=C(C(=O)NCC(=O)O)C(=O)N1Cc1cnc(OCC2CC2)cn1`
Reply text: 60

Inquiry: Now the same for `Cc1cc(CN2CCC(O)=C(C(=O)NCC(=O)O)C2=O)ccc1OCc1ccccc1`
Reply text: 92

Inquiry: Now the same for CC1CN(Cc2ccc(Cl)c(Cl)c2)C(=O)C(C(=O)NCC(=O)O)=C1O (centres unmarked)
Reply text: 90

Inquiry: Now the same for `O=C(O)CNC(=O)C1=C(O)CCN(Cc2ccc(CCC3CC3)cc2)C1=O`
Reply text: 94
